assay: chemical genetic growth profiling, strain panel (AID 1159580);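 note: tested at 20 µM; growth read once vehicle control cultures reached saturation at 30 °C; 1 = growth at the plate median or of vehicle wells; lower values mean less growth of the strain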; conditions: S. cerevisiae deletion strains, growth OD, locus YCL061C, strain MRC1, hits give low values
Out of some 5,500 compounds screened, about 2,000 (36%) were called active. Another 18% or so got no clear call; they are omitted. The list shows a part of the results.
quantity-name: normalized growth
# answer = number (no unit)

Here are 5 compounds together with their reported answers.
{"compound": "COC(=O)c1cc([N+](=O)[O-])ccc1NC(C)=O", "normalized growth": 0.997}
{"compound": "CC(=O)Nc1cc([As](=O)(O)O)ccc1O", "normalized growth": 0.995}
{"compound": "O=C(Nc1ccccc1F)C(Cl)Cl", "normalized growth": 1}
{"compound": "COc1ccc(-c2ccnc(SCC(=O)NCCSCc3ccco3)n2)cc1", "normalized growth": 1.01}
{"compound": "CC1(C)C(=O)C=C[C@@]2(C)C1=C(O)C(=O)[C@]1(C)C2CC[C@@]2(C)[C@H](c3ccoc3)C[C@H]3O[C@]321 (stereo partly drawn)", "normalized growth": 0.897}

The measured normalized growth associated with C/C=C/c1ccc2c(c1)OCO2 reads 1

O[N+]1=CC=CCC1=S.On1ccccc1=S.[Zn] yielded normalized growth of 0.0686

Value of normalized growth reported for the compound NC[C@H](O)c1ccc(O)c(O)c1 is 1.01

Record O=C(O)C1=CCNCC1 , field normalized growth: 1.02

compound C[C@H]1[C@H]2CCC3C4CC=C5C[C@@H](N(C)C)CC[C@]5(C)C4CC[C@@]32CN1C (stereo partly drawn) , normalized growth observed: 0.994

Reported normalized growth for CC(=O)Nc1cc([N+](=O)[O-])ccc1-n1cc(C)c(C(F)(F)F)n1 was 0.978

Documented normalized growth of CC(C)NCC(O)c1ccc(O)c(O)c1 (stereo not drawn) : 0.985

Documented normalized growth of N[C@@H](Cc1ccc(O)c(O)c1)C(=O)O : 0.998

----------
# normalized growth annotations
experiment: chemical genetic growth profiling, strain panel (AID 1159580); details: S. cerevisiae deletion strains, growth OD, locus YLR384C, strain iki3, hits give low values
The whole screen tested about 5,500 compounds, of which about 2,000 (36%) were called active. Another 18% or so got no clear call; they are omitted. The list shows a part of the results.

Reference set, count: 2
{"molecule": "CC1(C)CCCC2(C)C3C1[C@@H](O)C2(C)C[C@H]3O (some centres not stated)", "normalized growth": "1.02 (inactive)"}
{"molecule": "CC1(C)C(=O)C=C[C@@]2(C)C1=C(O)C(=O)[C@]1(C)C2CC[C@@]2(C)[C@H](c3ccoc3)C[C@H]3O[C@]321 (some centres not stated)", "normalized growth": "0.973 (inactive)"}

So for COC(=O)C[C@H]1C(C)(C)C(=O)[C@@H]2CC3=C4CC(=O)O[C@@H](c5ccoc5)[C@]4(C)CCC3[C@@]1(C)C2=O (some centres not stated) , the logged normalized growth turned out to be 0.993 (inactive)

Quick note, normalized growth for COc1cc2c(c(OC)c1OC)-c1ccc(OC)c(=O)cc1[C@@H](NC(C)=O)CC2 landed at 1.02 (inactive)

molecule O=C(O)/C=C/C=C/c1ccccc1 , normalized growth observed: 0.827 (active)

Record CS(=O)(=O)CCCCN=C=S . Reported normalized growth: 0.658 (active)

// CC(=O)/C(=C\c1ccccc1)CC(=O)O : normalized growth value = 0.992 (inactive)

Note to self: normalized growth recorded for Nc1ccc(S(=O)(=O)Nc2ccccn2)cc1 was 1.01 (inactive)

Record O=C(O)c1ccccc1Nc1ccccc1 . Reported normalized growth: 0.934 (inactive)

The measured normalized growth associated with Cc1c(Nc2ncccc2C(=O)O)cccc1C(F)(F)F reads 1 (inactive)

normalized growth measured on O=C(O[C@@H]1Cc2c(O)cc(O)cc2O[C@@H]1c1cc(O)c(O)c(O)c1-c1c([C@H]2Oc3cc(O)cc(O)c3C[C@H]2O)cc(O)c(O)c1O)c1cc(O)c(O)c(O)c1 = 1.02 (inactive)

Record C=CC(C1=CC(=O)C(OC)=CC1=O)c1ccccc1 (configuration not stated) , field normalized growth: 0.978 (inactive)

Record CC(=O)O[C@H]1C[C@@H](OC(C)=O)C(C)(C)C2C[C@@H](OC(C)=O)[C@@]3(C)C4=CC(=O)O[C@@H](c5ccoc5)[C@]4(C)CCC3[C@]21C (some centres not stated) . Reported normalized growth: 0.977 (inactive)

Quick note, normalized growth for N[C@@H](Cc1ccc(O)c(O)c1)C(=O)O landed at 1 (inactive)

Entry C/C=C/c1ccc2c(c1)OCO2 — recorded normalized growth = 1.03 (inactive)

According to the records, this molecule O=C(NC(=O)c1c(F)cccc1F)Nc1ccc(Cl)cc1 displays normalized growth of 1.03 (inactive)

For record CC(=O)NCCCS(=O)(=O)O the listed normalized growth is 1.02 (inactive)

----------
test: chemical genetic growth profiling, strain panel (AID 1159580);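 note: tested at 20 µM; growth read once vehicle control cultures reached saturation at 30 °C; 1 = growth at the plate median or of vehicle wells; lower values mean less growth of the strain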; details: S. cerevisiae deletion strains, growth OD, locus YER133W, strain GLC7
Hit rate of the full screen: of about 5,500 compounds, about 2,000 (36%) were called active. Not shown: some 18% with an inconclusive outcome. Cut-off read from the data, not from the text of the source: active = normalized growth mostly below about 0.91 (no sharp cut-off); inconclusive = no clear call, values can overlap the other calls; inactive = mostly above about 0.92. Some of the results follow.
Output constraint: value belongs to True (active), False (inactive)

Observe how each entry below is paired with its result.
{"smiles-str": "O=[N+]([O-])c1cc(Br)cnc1Sc1nnc(SCC2CC2)s1", "group-label": "False"}
{"smiles-str": "CC(=O)c1sc(SCCS(=O)(=O)c2ccc(C)cc2)c2c1CC(C)(C)CC2=O", "group-label": "True"}
{"smiles-str": "CC(C)c1ccc(N2C=Nc3ccc(C(C)C)cc3C2)cc1", "group-label": "False"}
{"smiles-str": "FC(F)(F)c1cccc(NNC(=S)Nc2ccccc2)c1", "group-label": "False"}
{"smiles-str": "COC(=O)C1=C(C)NC(C)=C(C(=O)OC)C1c1ccc(Cl)cc1Cl", "group-label": "False"}
{"smiles-str": "Cn1c(CSCCOc2ccccc2)nnc1SCc1ccc(Cl)cc1Cl", "group-label": "False"}

Note: attention shifts to another entry.
Problem: So what was the verdict on O=C(NC(=S)Nc1cccc(C(F)(F)F)c1)c1ccc2nonc2c1 in this test?
Result: False

----------
Parameter normalized growth: see the listing below.
assay: chemical genetic growth profiling, strain panel (AID 1159580);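 note: tested at 20 µM; growth read once vehicle control cultures reached saturation at 30 °C; 1 = growth at the plate median or of vehicle wells; lower values mean less growth of the strain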; settings: S. cerevisiae deletion strains, growth OD, locus YGL086W, strain mad1, hits give low values
In all, about 5,500 compounds went through this assay and about 2,000 (36%) were called active. Not shown: some 18% with an inconclusive outcome. This is one part of the list.
A bare number is all that is needed in reply.

Use these answered entries as a reference point.
{"molecule": "CCC(Cc1c(I)cc(I)c(N)c1I)C(=O)O (stereo not given)", "quantity-name": "normalized growth", "numeric-value": 0.986}
{"molecule": "CC(=O)OCC1(C)CCC2(C)CCC3(C)C4=CCc5c(cc(OC(C)=O)c(OC(C)=O)c5C)C4(C)CCC3(C)C2C1 (stereo not given)", "quantity-name": "normalized growth", "numeric-value": 0.998}
{"molecule": "Oc1ccc(Cl)c2cccnc12", "quantity-name": "normalized growth", "numeric-value": 0.0668}

GET /value?item= Oc1c(Cl)cc(Cl)c2cccnc12 &field=normalized growth returns 0.0594

// field: normalized growth; key: O=C1C=CC2=C3c4cc(O)c(O)cc4C[C@@]3(O)COC2=C1 ; value = 1.01

----------
assay: chemical genetic growth profiling, strain panel (AID 1159580);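 note: tested at 20 µM; growth read once vehicle control cultures reached saturation at 30 °C; 1 = growth at the plate median or of vehicle wells; lower values mean less growth of the strain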; conditions: S. cerevisiae deletion strains, growth OD, locus YKL160W, strain elf1, hits give low values
Out of some 5,500 compounds screened, about 2,000 (36%) were called active. Another 18% or so got no clear call; they are omitted. Some of the results follow.
quantity-name: normalized growth
Enter the number alone.

Consider the worked cases shown below.
{"molecule": "CC(C)=CCC/C(C)=C/CC/C(C)=C/CC/C(C)=C/CC/C(C)=C/CC/C(C)=C/CC/C(C)=C/CC/C(C)=C/CC/C(C)=C/CO", "normalized growth": 0.996}
{"molecule": "C=C[C@@H](C1=CC(=O)C(OC)=C(OC)C1=O)c1ccccc1", "normalized growth": 0.401}
{"molecule": "COC(C)(C)CCC[C@H](C)C/C=C/C(C)=C/C(=O)OC(C)C", "normalized growth": 1.02}
{"molecule": "O=C(O)C1=CCNCC1", "normalized growth": 0.99}
{"molecule": "Nc1ncn([C@@H]2O[C@H](CO)[C@@H](O)[C@H]2O)c(=O)n1", "normalized growth": 0.99}

Record C=C(C)[C@H]1CC=C(C(=O)O)CC1 , field normalized growth: 0.969

Form: molecule = COc1cc2c(c(OC)c1OC)-c1ccc(OC)c(=O)cc1[C@@H](NC(C)=O)CC2 ; normalized growth = 1.02

// recorded normalized growth for CC(=O)Oc1ccc(Cl)c2cccnc12 : 0.058

Recorded result, CC(=O)Nc1ccc(S(=O)(=O)c2ccc(NC(C)=O)cc2)cc1 , normalized growth: 1.01
